Test system: SR leukemia
Assay: NCI tumour cell line growth inhibition, 48 h
measured.parameter: TGI

>>> result("Nn1c(-c2ccccc2)nn(C(=O)c2ccccc2)c1=O")
"> 100 µM"
>>> result("O=C(CCc1nc(=S)[nH][nH]1)Nc1ccc(Cl)c(Cl)c1")
"> 100 µM"
>>> result("CC(C)(C)OC(=O)NCCCCC1NC(=O)[C@@H]2Cc3c([nH]c4ccccc34)C(C3CCCCC3)N2C1=O (stereo not given in full)")
"36.8 µM"
>>> result("CO/C(=N\\N=C\\c1ccc(C(F)(F)F)cc1)c1ccncc1")
"> 10 µM"
>>> result("Fc1[nH]nc2ccc([C@@H]3Nc4ccc5[nH]ncc5c4[C@H]4C5CCC(C5)[C@@H]34)cc12 (stereo not given in full)")
"3.61 µM"
>>> result("CN1CCN(C2=NCCO2)CC1")
"> 100 µM"
>>> result("N#Cc1c(N2CCCC2)ncn(-c2ccccc2)c1=O")
"> 100 µM"
>>> result("CN(C)c1ccc(/C=C\\C2=[N+](C)c3ccccc3C2(C)C)cc1")
"> 100 µM"
>>> result("Cc1cc(-c2nc(C(=O)Nc3cc4oc(N5CCOCC5)nc4nc3N3CC[C@@H](O)C3)co2)ccn1")
"> 100 µM"
>>> result("C#CCNC(CS)C(=O)O (stereo not given)")
"> 100 µM"
>>> result("OC1CSSC1Cn1cnc2c(Nc3ccc(OCc4cccc(F)c4)c(Cl)c3)ncnc21 (stereo not given)")
"1.59 µM"
>>> result("Cc1ccc([N+](=O)[O-])cc1NC1=NCCO1")
"> 100 µM"
>>> result("COc1cc(Br)cc2cc(-c3cn4ccsc4n3)c(=O)oc12")
"> 100 µM"
>>> result("COc1cc2cc(OC)c3cc4c(cc3c2c(OC)c1OC)OCO4")
"82.6 µM"
>>> result("Cc1ccc(CN2CCC(C(=O)Nc3ccc(-c4cc5ccccc5[nH]4)cc3)CC2)o1")
"> 100 µM"
>>> result("O=C(Nc1ccccc1)c1c(O)[nH]c(=S)[nH]c1=O")
"53.8 µM"
>>> result("NC(=O)NCCCC(NC(=O)OCCCCn1ccc(=O)[nH]c1=O)C(=O)O (stereo not given)")
"> 100 µM"
>>> result("CNS(=O)(=O)NNS(=O)(=O)c1ccccc1")
"> 100 µM"
>>> result("S=C1Nc2ccccc2SC1c1ccccc1 (stereo not given)")
"> 100 µM"
>>> result("COc1cccc(C2c3cc4c(cc3OC(C)(N3CCCC3)C2C)OCO4)c1O (stereo not given)")
"19.3 µM"

====

Tested on: HCT-15 colon
Test: NCI tumour cell line growth inhibition, 48 h; in the data active = GI50 below about 0.43 µM; inactive = the rest
Outcomes: true (1) = active, false (0) = inactive

>>> discrete_label("Fc1[nH]nc2ccc([C@@H]3Nc4ccc5[nH]ncc5c4[C@H]4C5CCC(C5)[C@@H]34)cc12 (stereo partly drawn)")
"false (0)"
>>> discrete_label("CCC[CH2][Sn]([CH2]CCC)([S]c1cccc2cccnc12)[S]c1cccc2cccnc12")
"true (1)"
>>> discrete_label("C=CC(=O)Nc1cc(Nc2ncc(C(=O)OC(C)C)c(-c3cn(C)c4ccccc34)n2)c(OC)cc1N(C)CCN(C)C")
"false (0)"

====

System: SK-MEL-5 melanoma
Test: NCI tumour cell line growth inhibition, 48 h
// reported TGI for each item listed
measured.parameter: TGI

>>> result("O=C1/C(=C/c2ccccc2)N=C2Sc3c(nc[nH]c3=O)N12")
"> 100 µM"
>>> result("Cc1cc(NS(=O)(=O)c2ccc(Nc3c4ccccc4nc4c(C(=O)N5CCN(CCOS(C)(=O)=O)CC5)cccc34)cc2)no1")
"> 100 µM"
>>> result("CC(C)(C)OC(=O)NCCCCC1NC(=O)[C@@H]2Cc3c([nH]c4ccccc34)C(C3CCCCC3)N2C1=O (stereo partly drawn)")
"> 100 µM"
